// data source = patent US20210255193A1

Target: NUDT2 Bis(5-nucleosyl)-tetraphosphatase (Homo sapiens, UniProt P50583)
Construct: isoTOP-ABPP experiments performed in cell lysates (in vitro); endogenous in cells
Sequence (P50583 whole entry): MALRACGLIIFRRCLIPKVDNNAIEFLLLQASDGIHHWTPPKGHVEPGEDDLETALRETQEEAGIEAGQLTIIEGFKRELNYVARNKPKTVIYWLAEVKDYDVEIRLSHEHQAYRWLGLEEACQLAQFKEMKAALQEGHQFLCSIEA
Experiment: competitive isoTOP-ABPP
Type: binding
Details: P50583_K89; 50 uM, 231 sol, in vitro
endpoint_label: R value (DMSO/fragment) for probe 1 labeling

The following molecules have reported results that may help.
# molecule, obs_value
measured = [
    ("O=C(Oc1c(F)c(F)c(F)c(F)c1F)C(c1ccccc1)c1ccccc1 [fragment 20, Pentafluorophenyl 2,2-diphenylacetate]", 0.9),
    ("O=C(Oc1c(F)c(F)c(F)c(F)c1F)c1cc(C(F)(F)F)cc(C(F)(F)F)c1", 0.9),
    ("O=C(CCc1cn(-c2ccccc2)nc1-c1ccccc1)Oc1c(F)c(F)c(F)c(F)c1F", 1.0),
    ("COc1cc(CCC(=O)Oc2c(F)c(F)c(F)c(F)c2F)cc(OC)c1OC", 1.0),
]

Alright, here's another molecule for you.
Any idea what R value (DMSO/fragment) for probe 1 labeling was measured for `Cn1cc(CC(=O)Oc2c(F)c(F)c(F)c(F)c2F)c2ccccc21` ?
0.9

---

Molecular target: NAA25 N-alpha-acetyltransferase 25, NatB auxiliary subunit (Homo sapiens)
Construct: isoTOP-ABPP experiments performed in cell lysates (in vitro); endogenous in cells; host or cells: soluble proteome of human cancer cell lines (MDA-MB-231; Ramos and Jurkat also prepared)
Sequence (Q14CX7 whole entry): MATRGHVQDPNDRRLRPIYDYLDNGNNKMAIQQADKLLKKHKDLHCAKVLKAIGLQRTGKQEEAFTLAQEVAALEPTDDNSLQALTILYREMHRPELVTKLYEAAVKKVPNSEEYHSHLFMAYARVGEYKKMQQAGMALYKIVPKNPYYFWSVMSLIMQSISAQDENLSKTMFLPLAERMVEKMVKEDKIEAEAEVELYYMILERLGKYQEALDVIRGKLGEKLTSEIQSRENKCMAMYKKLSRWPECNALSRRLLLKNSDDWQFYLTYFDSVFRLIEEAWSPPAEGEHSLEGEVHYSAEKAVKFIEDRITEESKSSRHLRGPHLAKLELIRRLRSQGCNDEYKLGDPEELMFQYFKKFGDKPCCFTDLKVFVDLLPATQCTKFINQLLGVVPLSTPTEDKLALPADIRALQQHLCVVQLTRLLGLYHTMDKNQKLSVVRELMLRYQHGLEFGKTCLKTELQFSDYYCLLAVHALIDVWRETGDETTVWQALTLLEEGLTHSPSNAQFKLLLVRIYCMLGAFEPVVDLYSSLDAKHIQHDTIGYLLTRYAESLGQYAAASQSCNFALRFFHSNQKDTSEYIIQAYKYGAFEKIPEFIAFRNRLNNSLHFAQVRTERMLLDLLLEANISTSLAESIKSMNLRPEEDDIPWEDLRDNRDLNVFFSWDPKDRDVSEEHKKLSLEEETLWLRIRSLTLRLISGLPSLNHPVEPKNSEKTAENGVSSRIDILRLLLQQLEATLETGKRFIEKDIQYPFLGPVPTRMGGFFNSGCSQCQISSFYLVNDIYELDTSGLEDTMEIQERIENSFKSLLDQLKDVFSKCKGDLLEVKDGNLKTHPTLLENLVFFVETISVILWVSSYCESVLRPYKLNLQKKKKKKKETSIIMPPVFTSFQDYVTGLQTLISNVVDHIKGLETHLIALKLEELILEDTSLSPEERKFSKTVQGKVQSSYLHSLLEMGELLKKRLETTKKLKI
Experiment: competitive isoTOP-ABPP
Type: binding
Conditions: 50 uM_231_sol_in vitro
Protocol: In vitro covalent fragment treatment for isoTOP-ABPP. All compounds were made up as solutions in DMSO (100×) and were used at a final concentration of 50 μM for activated esters and 100 μM for guanidinylating agents. […] R value calculation and processing. The ratios of light and heavy MS1 peaks for each unique peptide were quantified with a CIMAGE software using default parameters (3 MS1 acquisitions per peak and signal to noise threshold set to 2.5). […]
endpoint_label: isoTOP-ABPP ratio, lysine Q14CX7_K575
Please reply with the value in numeric form only.

# molecule, isoTOP-ABPP ratio, lysine Q14CX7_K575
measured = [
    ("NC(=O)c1cc(C(F)(F)F)cc(C(F)(F)F)c1 [fragment 51, reference compound]", 1.0),
]

Record O=C(CCc1ccc2c(c1)OCO2)Oc1ccc([N+](=O)[O-])cc1[N+](=O)[O-] [fragment 45] : what is its isoTOP-ABPP ratio, lysine Q14CX7_K575 with NAA25 N-alpha-acetyltransferase 25, NatB auxiliary subunit (Homo sapiens)?
1.2

Record N#Cc1ccc(C(=O)Oc2ccc([N+](=O)[O-])cc2[N+](=O)[O-])cc1 [fragment 44, 2,4-Dinitrophenyl 4-cyanobenzoate] : what is its isoTOP-ABPP ratio, lysine Q14CX7_K575 with NAA25 N-alpha-acetyltransferase 25, NatB auxiliary subunit (Homo sapiens)?
0.8

Record O=C(Oc1c(F)c(F)cc(F)c1F)c1cc(C(F)(F)F)cc(C(F)(F)F)c1 [fragment 48] : what is its isoTOP-ABPP ratio, lysine Q14CX7_K575 with NAA25 N-alpha-acetyltransferase 25, NatB auxiliary subunit (Homo sapiens)?
1.1

---

isoTOP-ABPP ratio, lysine P04179_K68 reference
Target: SOD2 Superoxide dismutase (Homo sapiens, UniProt P04179)
Construct: isoTOP-ABPP experiments performed in cell lysates (in vitro); endogenous in cells; host or cells: MDA-MB-231 soluble lysate
Sequence (P04179 25-222): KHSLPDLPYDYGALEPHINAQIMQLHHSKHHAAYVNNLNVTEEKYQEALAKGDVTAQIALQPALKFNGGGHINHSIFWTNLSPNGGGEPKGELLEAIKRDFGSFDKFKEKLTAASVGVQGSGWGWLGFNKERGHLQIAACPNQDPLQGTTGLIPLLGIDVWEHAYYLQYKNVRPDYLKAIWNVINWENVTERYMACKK
Assay: competitive isoTOP-ABPP
Format: binding
Settings: 50 uM_231_sol_in vitro
Protocol: In vitro covalent fragment treatment for isoTOP-ABPP. All compounds were made up as solutions in DMSO (100×) and were used at a final concentration of 50 μM for activated esters and 100 μM for guanidinylating agents. […] R value calculation and processing. The ratios of light and heavy MS1 peaks for each unique peptide were quantified with a CIMAGE software using default parameters (3 MS1 acquisitions per peak and signal to noise threshold set to 2.5). […]
Please reply with the value in numeric form only.

# compound, obs_value
records = [
    ("NC(=O)c1cc(C(F)(F)F)cc(C(F)(F)F)c1 [fragment 51, reference compound]", 0.9),
]

Any idea what isoTOP-ABPP ratio, lysine P04179_K68 was measured for N#Cc1ccc(C(=O)Oc2ccc([N+](=O)[O-])cc2[N+](=O)[O-])cc1 [fragment 44, 2,4-Dinitrophenyl 4-cyanobenzoate] ?
1.6

Any idea what isoTOP-ABPP ratio, lysine P04179_K68 was measured for `O=C(CCc1ccc2c(c1)OCO2)Oc1ccc([N+](=O)[O-])cc1[N+](=O)[O-]` ?
0.9

Any idea what isoTOP-ABPP ratio, lysine P04179_K68 was measured for `O=C(ON1C(=O)CCC1=O)c1cc(C(F)(F)F)cc(C(F)(F)F)c1` ?
0.9

---

Biological target: GLOD4 Glyoxalase domain-containing protein 4 (Homo sapiens)
Construct: endogenous in cells; host or cells: MDA-MB-231 (soluble fraction of lysate)
Sequence (Q9HC38 1-313): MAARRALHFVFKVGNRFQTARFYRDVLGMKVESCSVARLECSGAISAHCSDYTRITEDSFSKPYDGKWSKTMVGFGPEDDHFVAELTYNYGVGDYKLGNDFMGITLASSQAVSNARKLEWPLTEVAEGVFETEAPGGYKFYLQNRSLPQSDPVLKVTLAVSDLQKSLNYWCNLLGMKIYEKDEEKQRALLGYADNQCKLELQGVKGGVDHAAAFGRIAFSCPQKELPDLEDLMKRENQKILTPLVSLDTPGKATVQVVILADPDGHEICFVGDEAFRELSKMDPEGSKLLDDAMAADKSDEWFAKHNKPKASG
Assay: competitive isoTOP-ABPP
Assay type: binding
Conditions: 50 uM, 231 sol, in vitro
Short version: isoTOP-ABPP reactivity ratio at lysine Q9HC38_K305 at least 0.6 is 1.0, less is 0.0.

Kindly determine if isoTOP-ABPP reactivity ratio at lysine Q9HC38_K305 recorded for `O=C(CN1C(=O)c2ccccc2C1=O)Oc1c(F)c(F)c(F)c(F)c1F` is above or exactly 0.6.
0.0

Kindly determine if isoTOP-ABPP reactivity ratio at lysine Q9HC38_K305 recorded for `O=C(CCc1coc2cc(F)ccc2c1=O)Oc1c(F)c(F)c(F)c(F)c1F` is above or exactly 0.6.
1.0

---

Biological target: SMPD1 Sphingomyelin phosphodiesterase (Homo sapiens, UniProt P17405)
Construct: isoTOP-ABPP experiments performed in cell lysates (in vitro); endogenous in cells; host or cells: soluble proteome of human cancer cell lines (MDA-MB-231; Ramos and Jurkat also prepared)
Sequence (P17405 47-631): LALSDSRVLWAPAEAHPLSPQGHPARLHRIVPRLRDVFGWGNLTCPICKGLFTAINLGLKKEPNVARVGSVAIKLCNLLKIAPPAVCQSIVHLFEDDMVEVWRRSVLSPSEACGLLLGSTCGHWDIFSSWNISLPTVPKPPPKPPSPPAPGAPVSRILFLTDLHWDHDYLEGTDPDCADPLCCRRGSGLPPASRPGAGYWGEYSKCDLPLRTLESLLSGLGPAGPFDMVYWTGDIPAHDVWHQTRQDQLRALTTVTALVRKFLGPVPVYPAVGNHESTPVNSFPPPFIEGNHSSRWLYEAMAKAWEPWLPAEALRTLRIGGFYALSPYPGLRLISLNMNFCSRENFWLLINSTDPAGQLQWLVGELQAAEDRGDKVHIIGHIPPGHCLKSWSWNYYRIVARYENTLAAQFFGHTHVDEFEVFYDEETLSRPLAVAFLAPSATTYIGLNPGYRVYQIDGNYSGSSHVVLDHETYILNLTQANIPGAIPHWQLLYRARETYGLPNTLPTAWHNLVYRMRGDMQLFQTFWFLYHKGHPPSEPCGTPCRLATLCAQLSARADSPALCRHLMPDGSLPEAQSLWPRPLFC
Experiment: competitive isoTOP-ABPP
Type: binding
Settings: 50 uM_231_sol_in vitro
endpoint_label: isoTOP-ABPP ratio, lysine P17405_K118
Please reply with the value in numeric form only.

The following molecules have reported results that may help.
# molecule, measured_target, isoTOP-ABPP ratio, lysine P17405_K118
records = [
    ("O=C(ON1C(=O)CCC1=O)c1cc(C(F)(F)F)cc(C(F)(F)F)c1 [fragment 46]", "SMPD1 Sphingomyelin phosphodiesterase (Homo sapiens, UniProt P17405)", 0.7),
    ("N#Cc1ccc(C(=O)Oc2ccc([N+](=O)[O-])cc2[N+](=O)[O-])cc1 [fragment 44, 2,4-Dinitrophenyl 4-cyanobenzoate]", "SMPD1 Sphingomyelin phosphodiesterase (Homo sapiens, UniProt P17405)", 0.8),
    ("O=C(CCc1ccc2c(c1)OCO2)Oc1ccc([N+](=O)[O-])cc1[N+](=O)[O-] [fragment 45]", "SMPD1 Sphingomyelin phosphodiesterase (Homo sapiens, UniProt P17405)", 1.1),
]

Alright, here's another molecule for you.
Any idea what isoTOP-ABPP ratio, lysine P17405_K118 was measured for NC(=O)c1cc(C(F)(F)F)cc(C(F)(F)F)c1 [fragment 51, reference compound] ?
0.9
